# study target: T1, NYESOpMHC (HLA-A*0201:NYESO1-9V), biotinylated recombinant complex (human)
# T1 construct: also called NY-ESO-1 peptide-MHC complex
# test method notes: SPR (ProteOn), biotinylated pMHC on NLC chip, PBS with Tween
Listed here are binders together with their documented Kd.
measurement name: Kd (nM)

>>> observed("DARPin® protein #24 (designed binder) MRGSHHHHHHGSDLGEKLLYAAFYGQDDEVRILLTAGADVNAKDKYGLTPLHRAATHGHLEIVEVLLKAGADVNAKDEWGTTPLHIAAIFGHLEIVEVLLKAGADVNAQDEQGNTPADLAAVIGHEDIAEVLQKAA")
0.939
>>> observed("DARPin® protein #28 (designed binder) MRGSHHHHHHGSDLGQKLLKAAALGQDDEVRDLLKAGADVNAKDYQGQTPLHLAAWTGHLEIVEVLLKAGADVNAKDHFGYTPLHIAAHFGHLEIVEVLLKAGADVNAQDAAGQTPADLAAAEGHEDIAEVLQKAA")
2.57
>>> observed("DARPin® protein #23 (designed binder) MRGSHHHHHHGSDLGIKLLYAANSGQDDEVRILLAAGADVNAKDEYGDTPLHKAAEYGHLEIVEVLLKAGADVNAKDVYGITPLHLAAIFGHLEIVEVLLKAGADVNAQDKKGHTPADLAAFVGHEDIAEVLQKAA")
0.0939
>>> observed("DARPin® protein #33 (designed binder) MRGSHHHHHHGSDLGKKLLQAARAGQLDEVRELLKAGADVNAKDAIGQTPLHLAAFRGHLEIVEVLLKAGADVNAKDVAGWTPLHIAAAYGHLEIVEVLLKAGADVNAKDAYGQTPLHLAAFQGHLEIVEVLLKAGADVNAQDKSGKTPADLAARAGHQDIAEVLQKAA")
0.108
